# SYSTEM_NAME: HLA-B*15:01
# METHOD_NOTES: IEDB peptide-MHC binding, purified MHC/competitive/radioactivity; filed as Kd, often an IC50 or EC50 that approximates it; bounds were set here for any values at or beyond the usual limits of such assays
# MEASUREMENT_CONTEXT: source organism: Vaccinia virus WR
Classification by Kd follows these ranges: Low (below 60 nM), Mid (60 nM to below 500 nM), High (500 nM or more)

• FAPSYSAEM = Mid
• NTNKHMLEF = Low
• EIYTYFSHC = High
• FSNFSTSHI = Mid
• KAFNHASVK = Mid

Q) Hello team, could you let me know which band the following sequence falls into: `LMYILGTYG`
A) Mid

Q) Next entry: `ISWMMKLGI`
A) High

Q) Next entry: `LSRVFFCVY`
A) Low

Q) Next entry: `SMISRHCCI`
A) Mid

Q) Next entry: `LSTTRFQSM`
A) High

Q) Next entry: `QLFKYVPSA`
A) Mid

Q) Next entry: `LLHCVTESY`
A) Low
